- assayTarget: Alkaline phosphatase, tissue-nonspecific isozyme (Homo sapiens) (UniProt P05186)
- Sequence (P05186 whole entry, looked up): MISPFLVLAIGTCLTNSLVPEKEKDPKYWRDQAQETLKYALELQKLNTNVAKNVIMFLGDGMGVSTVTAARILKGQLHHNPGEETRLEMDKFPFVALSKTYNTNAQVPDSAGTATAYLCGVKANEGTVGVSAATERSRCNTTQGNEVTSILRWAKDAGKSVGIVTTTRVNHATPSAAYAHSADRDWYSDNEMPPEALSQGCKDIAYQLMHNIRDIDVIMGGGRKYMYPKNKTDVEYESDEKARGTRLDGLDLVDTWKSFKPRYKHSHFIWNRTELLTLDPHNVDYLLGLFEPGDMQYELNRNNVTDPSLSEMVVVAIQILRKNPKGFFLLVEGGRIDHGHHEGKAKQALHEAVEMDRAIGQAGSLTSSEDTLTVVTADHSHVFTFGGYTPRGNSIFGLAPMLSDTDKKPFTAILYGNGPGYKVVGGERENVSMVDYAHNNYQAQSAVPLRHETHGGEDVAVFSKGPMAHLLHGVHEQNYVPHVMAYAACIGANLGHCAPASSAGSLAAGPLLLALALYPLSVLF
- test: human TNAP enzyme inhibitors, primary screen, biochemical, luminescent, no phosphate acceptor, uHTS (AID 1012);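 also: 0% = DMSO negative control and 100% = EDTA positive control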
- assayConditions: purified TNAP, CDP-star luminescence, 30 min; at 20 µM; active compounds read high
The campaign covered roughly 200,000 compounds. About 520 (0.26%) were called active. Shown is part of a subset that was picked to be rich in actives.
Please provide measured inhibition for the entries that follow.

Sample COCc1[nH]nc2c1C(C1C=CCCC1)C(C#N)=C(N)O2 (stereo unspecified) , system: Alkaline phosphatase, tissue-nonspecific isozyme (Homo sapiens) (UniProt P05186). Its inhibition is 14.2% (inactive)

Sample COc1ccc(N2C(=O)CC(Sc3n[nH]c(-c4ccc(C)cc4)n3)C2=O)cc1 (stereo unspecified) , system: Alkaline phosphatase, tissue-nonspecific isozyme (Homo sapiens) (UniProt P05186). Its inhibition is 43.8% (inactive)

Sample Nc1ncnc(Nc2cccc(Cl)c2Cl)n1 , system: Alkaline phosphatase, tissue-nonspecific isozyme (Homo sapiens) (UniProt P05186). Its inhibition is -2.3% (inactive)

Sample CC1CCC(NC(=O)C2c3ccccc3C(=O)N2Cc2ccc3c(c2)OCO3)CC1 (stereo unspecified) , system: Alkaline phosphatase, tissue-nonspecific isozyme (Homo sapiens) (UniProt P05186). Its inhibition is -16.3% (inactive)

Sample CCn1c(CNS(=O)(=O)c2ccc(Cl)cc2)n[nH]c1=S , system: Alkaline phosphatase, tissue-nonspecific isozyme (Homo sapiens) (UniProt P05186). Its inhibition is 24.7% (inactive)

Sample CCCc1[nH]nc2c1C(c1ccc(Br)s1)C(C#N)=C(N)O2 (stereo unspecified) , system: Alkaline phosphatase, tissue-nonspecific isozyme (Homo sapiens) (UniProt P05186). Its inhibition is 1.9% (inactive)

Source: PubChem BioAssay AID1012
